Measurement notes: yeast display, Sf9 membrane polyspecificity reagent, FACS + sequencing; frameworks hold sequencing errors
Measured quantity: polyreactivity (PSR sort gate)

Sample records with polyreactivity (PSR sort gate):
>  <Sequence content>
QVQLVESGGGLVQAGGSLRLSCAASGSTFVQNAMGWYRQAPGKERELVAAISRTGGSTYYADSVKGRFTISRDNAKNTVYLQMKSLIPEDTAVYYCATRPPHYSWPKIIEFGSWGQGSQVTVSS

>  <polyreactivity (PSR sort gate)>
high polyreactivity

$$$$
>  <Sequence content>
QVQLVESGGGLVQAGGSLRLSCAASGNIFLRYAMGWYRQAPGKERELVAAISYSGGGSTYYADSVKGRFTISRDNAKNTVYLQMNSLKPEDTAVYYCAKVLTSRTQFFDYDYWGQGTQVTVSS

>  <polyreactivity (PSR sort gate)>
low polyreactivity

$$$$
>  <Sequence content>
QVQLVESGGVLVQAGGSLRLSCAASGNIFDQNAMGWYRQAPGKERELVAAITRSGSTTYYADSVKGRFTISRDNAKNTVYLQMNSLNPEDTAVYYCAAKVYAYRTYKMYYWGQGTQVTVSS

>  <polyreactivity (PSR sort gate)>
high polyreactivity

$$$$
>  <Sequence content>
QVQLVESGGGLDQAGGSLRLSCAASGSIFYDNTMAWYRQAAGKERDLVADISSGDSTYYADSVKGRFTISRDNAKNTVYLQMNSLKPEDTAVYYCNADVYSWVSVKEGDYWGQGTEVTVSS

>  <polyreactivity (PSR sort gate)>
low polyreactivity

$$$$
>  <Sequence content>
QVQLVESGGGLVQAGGSLRLSCAASGFIFVGYAMGWYRQAPGKERELVAAISYSGGRTYYADSVKGRFTISRDNAKNTVYLQMNSLKPEDTAVYYCAAQSRYGGKFYYWGQGTQVTVSS

>  <polyreactivity (PSR sort gate)>
high polyreactivity

$$$$

Give the measured polyreactivity (PSR sort gate) of QVQLVESGGGLVQAGGSLRLSCAASGRILYGNAMGWYRQAPGKERELVAAIDTSGGSTYYADSVKGRFTISRDNAKNTVYLQMNSLKPEDTAVYYCAVRAYREFLPIVYKWWWERDHWGQGTQVTVSS .
low polyreactivity

Now give it for QVQLVESGGGLFQAGGSLRLSCAATGRIFYSNAMGWYRQAPGKERELVAAINSRGGRTYYADSLKGRFTISRDNAKNTVYLQMNSLKPEDTAVYYCAAPTGPKGYYSDRGDSWGQGTQVTVSS too.
high polyreactivity

Now give it for QVQLVESGGGLVQAGGSLRLSCAASGFTFYRYARGWYRQAPGKERELVAAISSDGTTYYADSVKGRFTISRDNATNTVYLQMNSLKPEDTAVYYCAKRGYYRSRRYDYWGQGTQVTVSS too.
high polyreactivity

Now give it for QVQLVESGGGLVHAGGSLRLSCAASGSILSSYAMGWYRQAPGKERELVAAINSGGSTNYADSVKGRFTISRDNAKNTVYLQMNSLKAEDTAVYYCNADYSYGTTLDYWGQGTHVTVSS too.
low polyreactivity

Now give it for QVQLVESGGGLVQAGGSLRLSCAASGRIISYNAMGWYRQAPAKERELVAAISWGGGSTYYADSVKGRFTISRDTAKNTVYLQMNSLKPEDTAVSYCAKGWYRIKRNDYWGQGTQVTVSS too.
low polyreactivity

Now give it for QVQLVESGGGLVQAGGSLRLSCAASGRIFTPYAMGWYRQAPGKERELVAVIRDGSTYYADSVKGRFTISRDNAKNTVYLQMNSLKPEDPAVSYCSYDIWVWWSGAYDYWGQGNQVTVSS too.
low polyreactivity

---

Measurement notes: yeast display, Sf9 membrane polyspecificity reagent, FACS + sequencing; frameworks hold sequencing errors
Measured quantity: polyreactivity (PSR sort gate)

>  <Sequence content>
QVQLVESWGGLVQAGGSLRLSCAASGFIFTLYAMGWYRQATGKEREFVAAISWSDGSTTYADSVKGRFTISRDNAKTTVYLQMNSLKPEDTAVYYCAAVTSSYIRGLVYHFYYWGQGTQVTVSS

>  <polyreactivity (PSR sort gate)>
low polyreactivity

$$$$
>  <Sequence content>
QVQLVESGGGLVQAGGSLRLSCAASGFTFWYYAMGWYRQAPGKERELVATISRGGGSTYYADSVKGRFTISRDNAKNTVYLQMNSLKPEDTAVYYCAAETVRWWWLYDYWGQGTQVTVSS

>  <polyreactivity (PSR sort gate)>
high polyreactivity

$$$$
>  <Sequence content>
QVQLVESGGGLVQAGGSLRLSCAASGITFVTYAMGWYRQAPGKERELVAAITIGGRTNYADSVKGRFTISRDNAKNTVYLQMNSLKPEDTAVYYCNAAPVYDVTRLFYDDMGYWGQGTQVTVSS

>  <polyreactivity (PSR sort gate)>
low polyreactivity

$$$$
>  <Sequence content>
QVQLVESGGGLVQAGGSLRLSCAASGRTFQKYVMGWYRQEPGKEREIVAAISGGGGRTYYADSVKGRFTISRDNAKNTVYLQMNSLKPEDTAVYYCAARGLGKELDRFYYWGQGTQVTVSS

>  <polyreactivity (PSR sort gate)>
high polyreactivity

$$$$
>  <Sequence content>
QVQLVESGGGLVQAGGRLRLSCAASGFIFYYNTMGWYRQAPGKERELVAAISSGGRTYYADSVKGRFTISRDNAKNTVYLQMNSLKPEDTAVYYCNVVTYVKYGYWGQGTQVTVSS

>  <polyreactivity (PSR sort gate)>
high polyreactivity

$$$$
>  <Sequence content>
QVQLVESGGGLVQAGCSLRLSCAASGRTFNGYAMGWYRQAPGKERELVAAIASEGDTNYADSVKGRFTISRDNAKNTVYLQMNSLKPEDTAVYYCNADITRIWHFKYDYWGQGTQVTVSS

>  <polyreactivity (PSR sort gate)>
high polyreactivity

$$$$
>  <Sequence content>
QVQLVESGGGLVQAGGSLRLSCAASGITFVRYAMGWYRQAPGKERELVAVISRGGITNYADSVKGRFTISRDNAKNSVYLQMNSLKAEDTAVYYCAVRVRSNVRTYDYWGQGTQVTVSS

>  <polyreactivity (PSR sort gate)>
high polyreactivity

$$$$
>  <Sequence content>
QVQLVESGGGLVQAGGSLRLSCAASGSTFSRYAMGWSRQAPGKERELVAAISSSGGSTYYADSVKGRFTISRDNAKNTVYLQMNSLKPEDTAVYYCAARIWRTRRYDYWGQGTQVTVSS

>  <polyreactivity (PSR sort gate)>
high polyreactivity

$$$$
>  <Sequence content>
QVQLVESGGGLVQEGGSLRLSCAASGRIFRVYTMGWYRQAPGKERELVASITGRGGSTYYADSVKGRFTISRDNAKNTVYLQMNSLKPEDTAVYYCAAQTFRGFSEFDYWGQGTQVTLSS

>  <polyreactivity (PSR sort gate)>
high polyreactivity

$$$$
>  <Sequence content>
QVQLVESGGCLVQAGGSLRLSGAASGSISYRNSMGWYRQAPGKERELVAAISSRGGSTFYADSEKGRFTISRDNAKNTVYLQMNSLKPEDTAVYYCAARGYHRFKNVNYWGQGTQVTVSS

>  <polyreactivity (PSR sort gate)>
high polyreactivity

$$$$

Now for a further sequence.
Give the measured polyreactivity (PSR sort gate) of QVQLVESGGGLVQAGGSLRLSCAASGRTFWNYAMGWYRQAPGKERELVAAISSSGGTTYYADSVKGRFTISRDNAKNTVYLQMNSLKPEDTAVYYCAATGVSKPQRSFGYWGQGTQVTVSS .
low polyreactivity

---

Measurement notes: yeast display, Sf9 membrane polyspecificity reagent, FACS + sequencing; frameworks hold sequencing errors
Measured quantity: polyreactivity (PSR sort gate)

>  <Sequence content>
QVQLVESGGGLVQAGGSLRLSCAASGSIFPSYAMGWYRLAPGKERELVATISSDGGTNYADSVKGRFTISRDNAKNTVYLQMYSLKPEDTAVYYCATRTTYGQSGSAGPRPYNYWGQGTQVTVSS

>  <Measured quantity>
polyreactivity (PSR sort gate)

>  <Result>
low polyreactivity

$$$$
>  <Sequence content>
QVQLVESGGGLVQAGGSLRLSCAASGSTFDANAMGWYRQAPGKERELVATISDGGSTNYADSVKGRFTISRDNAKNTVYVQMNSLKPEDTAVYYCAAVKLFLGLGYDYWGQGTEVTVSS

>  <Measured quantity>
polyreactivity (PSR sort gate)

>  <Result>
low polyreactivity

$$$$

---

Measurement notes: yeast display, Sf9 membrane polyspecificity reagent, FACS + sequencing; frameworks hold sequencing errors
Measured quantity: polyreactivity (PSR sort gate)

>  <Sequence content>
QVQLVESGGGLVQAGGSLRLSCAASGLIFWAYAMGWYRQAPGKERELVAAISWSGARTYYADSVKGRFTISRDNAKNTVYLQMNILKPEDTAVYYCAAGLSSSSSGYEGDYWGLGTQVTVSS

>  <polyreactivity (PSR sort gate)>
high polyreactivity

$$$$
>  <Sequence content>
QVQLVESGGGLVQAGGSLRLSCAASGSYLRYYAMGWYRQAPGKERELVAAISRSGTKTYYADSVKGRFTISRDNAKKTVYLQMNSLKPEDTAVYYCAARGYYRDYDSWGQGTQVTGSS

>  <polyreactivity (PSR sort gate)>
high polyreactivity

$$$$
>  <Sequence content>
QVQLVESGGGLVQAGGSLRLSCAASGRTFRRNVMGWYRQAPGKERELVAAISSGANTNYADSVKGRFTISRDNAKNTVYLQMNSLKPEDTAVYYCAAGEGWRSRTFDYWGQGTQVTVSS

>  <polyreactivity (PSR sort gate)>
low polyreactivity

$$$$
>  <Sequence content>
QVQLVESGGGLVQAGGSLRLSCAASGFTFRKNAMGWYRQAPGKERELVAAISRRGGRTYYADSVKGRFTISRDNAKNTVYLQMNSLKPEDSAVYYCNDDEYGGSSGRKGRYNYWGQGTQVTVSS

>  <polyreactivity (PSR sort gate)>
low polyreactivity

$$$$

Now for a further sequence.
Give the measured polyreactivity (PSR sort gate) of QVQLVESGGGLVQAGGSLRLSCAASGFIFGTYAMGWYRQAPGKERELVAAISQSGGRTYYADSVKGRFTISRDNAKNTVYLQMNSLKPEDTAVYYCAAYRYVRYDYWGQGTQVTVSS .
high polyreactivity
